Reference for the values: ChEMBL document CHEMBL1909294

Give HepSE_jaundice for every item shown.
test system: Hepatotoxicity;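 also: Jaundice-related hepatic side-effect score drawn from the training data of the DILIps (drug-induced liver injury prediction system)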; also: call rule not given here
One number for each entry.

See these solved cases before continuing.
COc1ccc(-c2ccc3cc(C(=O)O)ccc3c2)cc1C12CC3CC(CC(C3)C1)C2 ... 0
CC1(C)S[C@@H]2[C@H](NC(=O)[C@H](N)c3ccc(O)cc3)C(=O)N2[C@H]1C(=O)O ... 1

Please look at the items below and tell me HepSE_jaundice for each one, in order.
1. CCN(CC)CCN1C(=O)CN=C(c2ccccc2F)c2cc(Cl)ccc21
2. COc1ccc2c(c1)c(CC(=O)O)c(C)n2C(=O)c1ccc(Cl)cc1
3. COc1cc2nc(N3CCN(C(=O)C4CCCO4)CC3)nc(N)c2cc1OC (stereo not given)
4. Nc1nc(=O)[nH]cc1F
5. CN(C)CCOC(c1ccc(Cl)cc1)c1ccccn1 (stereo not given)

1: 0; 2: 1; 3: 1; 4: 1; 5: 0

Required: HepSE_jaundice, one value per compound below.
1. NCC[C@H](O)C(=O)N[C@@H]1C[C@H](N)[C@@H](O[C@H]2O[C@H](CN)[C@@H](O)[C@H](O)[C@H]2O)[C@H](O)[C@H]1O[C@H]1O[C@H](CO)[C@@H](O)[C@H](N)[C@H]1O
2. COCCCOc1ccnc(C[S+]([O-])c2nc3ccccc3[nH]2)c1C (stereo not given)
3. NS(=O)(=O)c1cc2c(cc1C(F)(F)F)NCNS2(=O)=O [HYDROFLUMETHIAZIDE]
4. OC(CNCC(O)C1CCc2cc(F)ccc2O1)C1CCc2cc(F)ccc2O1 (stereo not given)
5. CCC(C)n1ncn(-c2ccc(N3CCN(c4ccc(OCC5COC(Cn6cncn6)(c6ccc(Cl)cc6Cl)O5)cc4)CC3)cc2)c1=O (stereo not given)

0
1
1
0
1

Field: HepSE_jaundice. Fill in for each record below.
1. CN(C)CCC=C1c2ccccc2COc2ccccc21 [DOXEPIN]
2. CCCc1nc(C(C)(C)O)c(C(=O)OCc2oc(=O)oc2C)n1Cc1ccc(-c2ccccc2-c2nnn[nH]2)cc1
3. CN1CC(=O)N2[C@H](c3ccc4c(c3)OCO4)c3[nH]c4ccccc4c3C[C@@H]2C1=O
4. C[C@]12C=CC(=O)C=C1CC[C@H]1[C@@H]3C[C@@H](O)[C@](O)(C(=O)CO)[C@@]3(C)C[C@H](O)[C@@]12F

1: 1; 2: 1; 3: 0; 4: 0

Lab note: each compound below needs its HepSE_jaundice filled in.
1. [H]/N=C(\N/C(=N/[H])NCCCCCCNC(=N)NC(=N)Nc1ccc(Cl)cc1)Nc1ccc(Cl)cc1
2. CCCN1CCCC[C@H]1C(=O)Nc1c(C)cccc1C
3. Cc1oncc1C(=O)Nc1ccc(C(F)(F)F)cc1 [LEFLUNOMIDE]
4. CNCC[C@@H](Oc1ccccc1C)c1ccccc1
5. CCCCc1ncc(/C=C(\Cc2cccs2)C(=O)O)n1Cc1ccc(C(=O)O)cc1
6. O=C(O)CCCc1ccc(N(CCCl)CCCl)cc1

1: 0; 2: 1; 3: 1; 4: 0; 5: 0; 6: 1
